Measured % T/C day 6, listed per entry.
tested on: human U87 glioma tumor; assay: In vivo anti tumour effects, U87 glioma xenograft; settings: U87 xenograft in NMRI Nude mice, 20 mg/kg p.o. QD for 5 days, day 6 after start dosing; 20 mg/kg
Measured metric: % T/C day 6

In [3]: df
Out[3]:
                                   compound         target_of_assay  measured_metric  experimental_result
0  COC1CCc2c(Nc3ccc(NCCc4c[nH]c5c(C(C)(C)O)cccc45)c(C)c3)ccnc21 (single isomer, unassigned) [Compound 28]  human U87 glioma tumor      % T/C day 6                −280%
1  CC(C)(O)c1cccc2c(CCNc3ccc(Nc4ccnc5c4CCC5(C)O)cc3)c[nH]c12 (single isomer, unassigned) [Compound 30]  human U87 glioma tumor      % T/C day 6                 −61%
2  COC1CCc2c(Nc3ccc(NCCc4c[nH]c5c(C(C)(C)O)cccc45)cc3)ccnc21 (single isomer, unassigned) [Compound 24]  human U87 glioma tumor      % T/C day 6                  60%
3  COC1CCc2c(Nc3ccc(NCCc4c[nH]c5c(C(C)(C)O)cccc45)cc3)ccnc21 (single isomer, unassigned) [Compound 25]  human U87 glioma tumor      % T/C day 6                 330%
4  Cc1cc(Nc2ccnc3c2CCC3O)ccc1NCCc1c[nH]c2c(C(C)O)cccc12 (single isomer, unassigned) [Compound 15]  human U87 glioma tumor      % T/C day 6                  53%
5  Cc1cc(Nc2ccnc3c2CCC3O)ccc1NCCc1c[nH]c2c(C(C)O)cccc12 (single isomer, unassigned) [Compound 12]  human U87 glioma tumor      % T/C day 6                  64%
6  Cc1cc(Nc2ccnc3c2CCC3(C)O)ccc1NCCc1c[nH]c2c(C(C)(C)O)cccc12 (single isomer, unassigned) [Compound 27]  human U87 glioma tumor      % T/C day 6                 193%
7  Cc1cc(Nc2ccnc3c2CCC3(C)O)ccc1NCCc1c[nH]c2c(C(C)(C)O)cccc12 (single isomer, unassigned) [Compound 26]  human U87 glioma tumor      % T/C day 6                 354%
8  CC(C)(O)c1cccc2c(CCNc3ccc(Nc4ccnc5c4CCC5(C)O)cc3)c[nH]c12 (single isomer, unassigned) [Compound 31]  human U87 glioma tumor      % T/C day 6                 179%
9  COC1CCc2c(Nc3ccc(NCCc4c[nH]c5c(C(C)(C)O)cccc45)c(C)c3)ccnc21 (single isomer, unassigned) [Compound 29]  human U87 glioma tumor      % T/C day 6                −196%

---

tested on: colorectal cancer cell line HCT116; assay: Alamar Blue cell proliferation assay, HCT116; assay type: cell-based; conditions: Homo sapiens, HCT-116, HCT116 cells; read-out: HCT116 cell proliferation inhibition pIC50 (converted)
I'd appreciate it if you marked entries y when IC50 is lower than 200 nM and n when it is not.

                                    molecule  class
 0  Cc1cc(Nc2ccnc3c2CCC3O)ccc1NCCc1c[nH]c2c(CCC(C)O)cccc12 (centres unmarked)      n
 1  Cc1cc(Nc2ccnc3c2CCC3=O)ccc1NCCc1c[nH]c2c(C(C)O)cccc12 (centres unmarked)      n
 2  Cc1cc(Nc2ccnc3c2CCC3(C)O)ccc1NCCc1c[nH]c2c(C(C)(C)O)cccc12 (single isomer, unassigned) [Compound 27]      y
 3  Cc1cc(Nc2ccnc3c2CCC3(C)O)ccc1NCCc1c[nH]c2c(C(C)(C)O)cccc12 (centres unmarked) [Compound 1]      y
 4  COC1CCc2c(Nc3ccc(NCCc4c[nH]c5c(C(C)(C)O)cccc45)cc3)ccnc21 (centres unmarked) [Compound 8]      y
 5  C=Cc1ccc2c(CCNc3ccc(Nc4ccnc5c4CCC5O)cc3C)c[nH]c2c1 (centres unmarked)      n
 6  Cc1cc(Nc2ccnc(CO)c2)ccc1NCCc1c[nH]c2c(C(C)O)cccc12 (centres unmarked)      n
 7  C=C(C)c1cccc2c(CCNc3ccc(Nc4ccnc5c4CCC5OC)cc3)c[nH]c12 (centres unmarked)      y
 8  COC1CCc2c(Nc3ccc(NCCc4c[nH]c5c(C(C)(C)O)cccc45)cc3)ccnc21 (single isomer, unassigned) [Compound 24]      y
 9  OCc1cccc2c(CCNc3ccc(Nc4ccnc5c4CCC5O)cc3)c[nH]c12 (centres unmarked)      n
10  Cc1cc(Nc2ccnc3c2CCC3O)ccc1NCCc1c[nH]c2c(C(C)(C)O)cccc12 (centres unmarked)      y

---

tested on: A2780 ovarian cancer cells; test: Alamar Blue cell proliferation assay, A2780; format: cell-based, human; conditions: Homo sapiens, A2780, 96 h, 4-day incubation, read-out: A2780 cell proliferation inhibition pIC50 (converted)
Listing: IC50 of selected molecules
Measured metric: IC50 (nM)

>>> df
                                   molecule  measured_metric  experimental_result
0  Cc1cc(Nc2ccnc3c2CCC3(C)O)ccc1NCCc1c[nH]c2c(C(C)(C)O)cccc12 (centres unmarked) [Compound 1]             IC50                  115
1  Cc1cc(Nc2ccnc3c2CCC3(C)O)ccc1NCCc1c[nH]c2c(C(C)(C)O)cccc12 (single isomer, unassigned) [Compound 27]             IC50                  141
2  C=C(C)c1cccc2c(CCNc3ccc(Nc4ccnc5c4CCC5OC)cc3)c[nH]c12 (centres unmarked)             IC50                  110
3  Cc1cc(Nc2ccnc3c2CCC3O)ccc1NCCc1c[nH]c2c(CCC(C)O)cccc12 (centres unmarked)             IC50                  141
4  OCc1cccc2c(CCNc3ccc(Nc4ccnc5c4CCC5O)cc3)c[nH]c12 (centres unmarked)             IC50                  214
5  Cc1cc(Nc2ccnc3c2CCC3O)ccc1NCCc1c[nH]c2c(C(C)(C)O)cccc12 (centres unmarked)             IC50                 51.3
6  Cc1cc(Nc2ccnc(CO)c2)ccc1NCCc1c[nH]c2c(C(C)O)cccc12 (centres unmarked)             IC50                 52.5
7  Cc1cc(Nc2ccncc2)ccc1NCCc1c[nH]c2c(C(C)(C)O)cccc12             IC50                 41.7

---

system: A2780 ovarian cancer cells; test: Alamar Blue cell proliferation assay, A2780; assay type: cell-based, human; conditions: Homo sapiens, A2780, 96 h, 4-day incubation, read-out: A2780 cell proliferation inhibition pIC50 (converted)
Measured metric: IC50 (nM)

>>> print(df.to_string())
                                   compound  measured_metric  units_of_measure  experimental_result
0  C=Cc1ccc2c(CCNc3ccc(Nc4ccnc5c4CCC5O)cc3C)c[nH]c2c1 (stereo not shown)             IC50                nM                  372
1  COC1CCc2c(Nc3ccc(NCCc4c[nH]c5c(C(C)(C)O)cccc45)cc3)ccnc21 (stereo not shown) [Compound 8]             IC50                nM                 87.1
2  Cc1cc(Nc2ccnc3c2CCC3=O)ccc1NCCc1c[nH]c2c(C(C)O)cccc12 (stereo not shown)             IC50                nM                  182
3  COC1CCc2c(Nc3ccc(NCCc4c[nH]c5c(C(C)(C)O)cccc45)cc3)ccnc21 (single isomer, unassigned) [Compound 24]             IC50                nM                 66.1

---

// reported DU145 cell proliferation inhibition pIC50 for each item listed
tested on: human prostate cancer cell line DU145; test: Alamar Blue cell proliferation assay, DU145; type: cell-based; conditions: DU145 cells
Measured metric: DU145 cell proliferation inhibition pIC50

>>> print(df.to_string())
                                   compound  experimental_result
0  Cc1cc(Nc2ccnc3c2CCC3(C)O)ccc1NCCc1c[nH]c2c(C(C)(C)O)cccc12 (single isomer, unassigned) [Compound 26]                 6.18
1  CC(C)(O)c1cccc2c(CCNc3ccc(Nc4ccnc5c4CCC5(C)O)cc3)c[nH]c12 (single isomer, unassigned) [Compound 30]                 6.14
2  Cc1cc(Nc2ccnc(CO)c2)ccc1NCCc1c[nH]c2c(C(C)(C)O)cccc12 [Compound 19]                 5.74
3  Cc1cc(Nc2ccnc3c2CCC3O)ccc1NCCc1c[nH]c2c(CCO)cccc12 (single isomer, unassigned) [Compound 23]                    5
4  COC1CCc2c(Nc3ccc(NCCc4c[nH]c5c(C(C)O)cccc45)c(C)c3)ccnc21 (stereo not drawn) [Compound 16]                 5.98
5  COc1cc(Nc2ccnc3c2CCC3O)ccc1NCCc1c[nH]c2c(C(C)(C)O)cccc12 (stereo not drawn) [Compound 11]                 6.21
6  Cc1cc(Nc2ccnc3c2CCC3O)ccc1NCCc1c[nH]c2c(C(C)(C)O)cccc12 (stereo not drawn) [Compound 20]                 5.73
7  COC1CCc2c(Nc3ccc(NCCc4c[nH]c5c(C(C)(C)O)cccc45)c(C)c3)ccnc21 (single isomer, unassigned) [Compound 29]                 6.58
8  Cc1cc(Nc2ccnc3c2CCC3O)ccc1NCCc1c[nH]c2c(C(C)(C)O)cccc12 (stereo not drawn) [Compound 18]                 6.40
